# Tested on: 266295-075-R-J1-PDC spheroid viability;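 further: spheroids exposed to compounds for seven days before readout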
# PROTOCOL TEXT: Anticancer human tumor 266295-075-R-J1-PDC patient-derived head and neck squamous carcinoma cell line growth inhibition [POLQ]
# CONDITION SUMMARY: second compound 0.1 µM; first compound 0.1 µM; active compounds read low; spheroids with HUVEC and MSC

- MOLECULE: "COc1cccc(OCCCN)c1-c1cc(Nc2cnc(C#N)cn2)n[nH]1 + COC1C(OC(N)=O)C(O)C(Oc2ccc3c(O)c(NC(=O)c4ccc(O)c(CC=C(C)C)c4)c(=O)oc3c2C)OC1(C)C"
  OUTPUT UNIT: "%"
  viability, T/C: 68.7
- MOLECULE: "CCCS(=O)(=O)Nc1ccc(F)c(C(=O)c2c[nH]c3ncc(-c4ccc(Cl)cc4)cc23)c1F + Cc1cccc(N(C)C(=O)C2C(O)CCN2c2nc(C)cc(C(F)(F)F)c2C#N)c1"
  OUTPUT UNIT: "%"
  viability, T/C: 81.3
- MOLECULE: "COc1cccc(OCCCN)c1-c1cc(Nc2cnc(C#N)cn2)n[nH]1 + Nc1ccc(C#CCN(C(=O)Cc2ncc(C(F)(F)F)cc2C(F)(F)F)c2ccc(F)cc2)nn1"
  OUTPUT UNIT: "%"
  viability, T/C: 69.3
- MOLECULE: "C=CCn1c(=O)c2cnc(Nc3ccc(N4CCN(C)CC4)cc3)nc2n1-c1cccc(C(C)(C)O)n1 + Nc1ccc(C#CCN(C(=O)Cc2ncc(C(F)(F)F)cc2C(F)(F)F)c2ccc(F)cc2)nn1"
  OUTPUT UNIT: "%"
  viability, T/C: 125
- MOLECULE: "COc1cc(C2c3cc4c(cc3C(OC3OC5COC(C)OC5C(O)C3O)C3COC(=O)C23)OCO4)cc(OC)c1O (stereo unspecified) + Nc1ccc(C#CCN(C(=O)Cc2ncc(C(F)(F)F)cc2C(F)(F)F)c2ccc(F)cc2)nn1"
  OUTPUT UNIT: "%"
  viability, T/C: 97
- MOLECULE: "CC(C)n1c(=O)n(C)c2cnc3cc(F)c(-c4ccc(OCCCN5CCCCC5)nc4)cc3c21 + Nc1ccc(C#CCN(C(=O)Cc2ncc(C(F)(F)F)cc2C(F)(F)F)c2ccc(F)cc2)nn1"
  OUTPUT UNIT: "%"
  viability, T/C: 103
- MOLECULE: "CC1COCCN1c1cc(-c2ccnn2C)c2ccnc(-c3ccn[nH]3)c2n1 (stereo unspecified) + COC1C(OC(N)=O)C(O)C(Oc2ccc3c(O)c(NC(=O)c4ccc(O)c(CC=C(C)C)c4)c(=O)oc3c2C)OC1(C)C"
  OUTPUT UNIT: "%"
  viability, T/C: 92.2
- MOLECULE: "CCc1cc2c(N3CCc4c(cc(Cn5ccnc5)cc4-c4cn(C)nc4C(F)(F)F)C3=O)ccnc2c(OC)n1 + Cc1cccc(N(C)C(=O)C2C(O)CCN2c2nc(C)cc(C(F)(F)F)c2C#N)c1"
  OUTPUT UNIT: "%"
  viability, T/C: 90
- MOLECULE: "COc1cc(C2c3cc4c(cc3C(OC3OC5COC(C)OC5C(O)C3O)C3COC(=O)C23)OCO4)cc(OC)c1O (stereo unspecified) + Cc1cccc(N(C)C(=O)C2C(O)CCN2c2nc(C)cc(C(F)(F)F)c2C#N)c1"
  OUTPUT UNIT: "%"
  viability, T/C: 82.2
- MOLECULE: "C=CC(=O)N1CCN(c2nc(=O)n(-c3c(C)ccnc3C(C)C)c3nc(-c4c(O)cccc4F)c(F)cc23)C(C)C1 (stereo unspecified) + Nc1ccc(C#CCN(C(=O)Cc2ncc(C(F)(F)F)cc2C(F)(F)F)c2ccc(F)cc2)nn1"
  OUTPUT UNIT: "%"
  viability, T/C: 106
- MOLECULE: "COc1cc2cc(C(=O)CCC(=O)O)sc2cc1OC + Cc1cccc(N(C)C(=O)C2C(O)CCN2c2nc(C)cc(C(F)(F)F)c2C#N)c1"
  OUTPUT UNIT: "%"
  viability, T/C: 103
